assay: in vitro; settings: human, Cytotoxicity, % of control (single replicates, Experiment #1-#4)
Property measured: activity at 72 h, 0.1 µM (%)
Your answer is read as %, so omit the unit and give the number.

Dear colleague, I am looking for the recorded activity at 72 h, 0.1 µM of the following compound: O=C(CC1NCCCC1O)Cn1cnc2cc(Br)c(Cl)cc2c1=O (stereo not shown) [HF, Halofuginone, reference compound]
34.2

###

system: TNT Quick Coupled Transcription/Translation System (luciferase synthesis); type: biochemical; conditions: log(inhibitor) vs. response, variable slope (four parameters); concentration in nM
Reported TNT-luciferase LogIC50 (best-fit value) is given for each of the following molecules.

Known TNT-luciferase LogIC50 (best-fit value) results, listed for orientation:
- Molecule: "Cc1c(Br)cnc2c1ncn2CC(=O)C[C@H]1NCCC[C@@H]1O [DWN11761]"
  Property measured: "TNT-luciferase LogIC50 (best-fit value)"
  Reported: 2.775
- Molecule: "O=C(C[C@H]1NCCC[C@@H]1O)Cn1cnc2ccc(-c3cccc(F)c3)cc21 [DWN11251]"
  Property measured: "TNT-luciferase LogIC50 (best-fit value)"
  Reported: 3.802
- Molecule: "O[C@H]1CCCN[C@@H]1CCCn1cnc2c(Cl)c(Cl)ccc21 [DWN12088]"
  Property measured: "TNT-luciferase LogIC50 (best-fit value)"
  Reported: 4.702

For the next question, use this molecule.
Look up TNT-luciferase LogIC50 (best-fit value): Cc1c(Cl)ccc2c1ncn2CC(=O)C[C@H]1NCCC[C@@H]1O [DWN11748]
3.407
